Source of measurements: ChEMBL document CHEMBL2406929

# Species: Homo sapiens
# Test: Cytoprotective activity against diethyl maleate-induced loss of mitochondrial membrane integrity in human Friedreich's ataxia lymphocytes at 250 nM incubated overnight prior to diethyl maleate-treatment measured after 140 mins by TMRM staining-based FACS flow cytometric analysis relative to control
# Type: functional
Give measured Activity for each item. Keep answers brief.
For clarity, give the value followed by its unit.

Consider the worked cases shown below.
CCCCCCCCCCCCCCc1nc(N(C)C)nc(OC)c1O    88%
COc1nc(N(C)C)nc(CCCCCCCCCCOCC23CC4CC(CC(C4)C2)C3)c1O    82%

Below are some compounds; for each one, tell me its Activity.
1. CCCCCCCCCCc1nc(N(C)C)nc(OC)c1O
2. Cc1nc(N(C)C)nc(CCCCCCCCCCO)c1O
3. COC1=C(OC)C(=O)C(CCCCCCCCCCO)=C(C)C1=O
4. CCCCCCCCCCCCCCCCc1nc(N(C)C)nc(OC)c1O
5. CCCCCCCCCCCCCCCCCCc1nc(N(C)C)nc(OC)c1O
6. CCCCCCCCCCC1=C(C)C(=O)C(OC)=C(OC)C1=O
7. COc1nc(N(C)C)nc(CCCCCCCCCCO)c1O

1. 80%
2. 37%
3. 26%
4. 90%
5. 55%
6. 82%
7. 48%
